Values were extracted from patent US9115127B2.

- studyTarget: wild-type human ALK (cytoplasmic domain, amino acids 1058-1620, N-terminal GST fusion) (Homo sapiens)
- Construct: The cytoplasmic domain (amino acids 1058-1620) of wild-type human ALK; GST (N); made in house; host or cells: SF9 insect cells
- experimentNotes: ALK Inhibition in Enzyme Assay (Lance TR-FRET kinase assay)
- Type: biochemical
resultType: IC50

Solved entries:
Incoming: IC50 lookup needed for CC(C)NC(=O)[C@H]1CC[C@@H](n2/c(=N/C(=O)c3ccc(F)cc3)[nH]c3ccc(Cl)cc32)CC1 [Example 219] , thanks.
Outgoing: < 50 nM

Incoming: IC50 lookup needed for CC(C)NC(=O)[C@H]1CC[C@@H](n2/c(=N/C(=O)N3CCCC3)[nH]c3cnc(OCCN4CCCCC4)cc32)CC1 [Example 134] , thanks.
Outgoing: 50 to 100 nM

Incoming: IC50 lookup needed for C[C@H]1CN(C(=O)[C@H]2CC[C@@H](n3/c(=N/C(=O)c4ccc(F)cc4)[nH]c4cnc(OCCN5CCCCC5)cc43)CC2)CCN1C(=O)OC(C)(C)C [Example 60] , thanks.
Outgoing: 1000 to 5000 nM

Incoming: IC50 lookup needed for NC(=O)[C@H]1CC[C@@H](n2/c(=N/C(=O)c3ccc(F)cc3)[nH]c3cnc(OCCN4CCCCC4)cc32)CC1 [Example 135] , thanks.
Outgoing: < 50 nM

Incoming: IC50 lookup needed for C[C@H](CO)NC(=O)[C@H]1CC[C@@H](n2/c(=N/C(=O)c3ccc(F)cc3)[nH]c3ccc(CN4CCOCC4)cc32)CC1 [Example 200] , thanks.
Outgoing: < 50 nM

---
Incoming: IC50 lookup needed for CC(C)NC(=O)[C@H]1CC[C@@H](n2/c(=N/C(=O)c3cccnc3)[nH]c3cnc(OCCN4CCCCC4)cc32)CC1 [Example 96] , thanks.
Outgoing: < 50 nM

Incoming: IC50 lookup needed for O=C(/N=c1\[nH]c2ccc(CN3CCOCC3)cc2n1[C@H]1CC[C@@H](C(=O)NCCO)CC1)c1ccc(F)cc1 [Example 201] , thanks.
Outgoing: < 50 nM

Incoming: IC50 lookup needed for N#Cc1ccc(C(=O)/N=c2\[nH]c3cnc(OCCN4CCCCC4)cc3n2[C@H]2CC[C@@H](C(=O)N3CCNCC3)CC2)cc1 [Example 123] , thanks.
Outgoing: < 50 nM

----------
- studyTarget: wild-type human ALK (cytoplasmic domain, amino acids 1058-1620, N-terminal GST fusion) (Homo sapiens, UniProt Q9UM73)
- Construct: The cytoplasmic domain (amino acids 1058-1620) of wild-type human ALK; GST (N); made in house; host or cells: SF9 insect cells
- Sequence (Q9UM73 1058-1620): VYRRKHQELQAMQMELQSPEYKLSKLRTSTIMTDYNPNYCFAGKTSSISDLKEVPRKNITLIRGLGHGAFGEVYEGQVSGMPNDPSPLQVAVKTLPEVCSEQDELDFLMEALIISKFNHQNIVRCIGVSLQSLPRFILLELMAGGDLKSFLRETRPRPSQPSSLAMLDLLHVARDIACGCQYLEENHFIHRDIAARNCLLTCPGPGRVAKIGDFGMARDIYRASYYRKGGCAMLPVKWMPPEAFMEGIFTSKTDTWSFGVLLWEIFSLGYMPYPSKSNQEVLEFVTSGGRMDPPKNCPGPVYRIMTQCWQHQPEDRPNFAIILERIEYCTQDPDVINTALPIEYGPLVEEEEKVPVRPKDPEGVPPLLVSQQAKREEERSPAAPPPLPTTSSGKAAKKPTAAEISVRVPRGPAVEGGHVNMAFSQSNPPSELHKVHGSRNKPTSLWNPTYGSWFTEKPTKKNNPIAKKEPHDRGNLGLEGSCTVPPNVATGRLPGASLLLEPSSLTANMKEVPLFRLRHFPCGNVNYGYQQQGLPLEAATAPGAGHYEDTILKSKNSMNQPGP
- experimentNotes: ALK Inhibition in Enzyme Assay (Lance TR-FRET kinase assay)
- Assay type: biochemical
resultType: IC50

Solved entries:
Incoming: IC50 lookup needed for `COc1cc2c(cn1)[nH]/c(=N\C(=O)c1ccc(F)cc1)n2[C@H]1CC[C@@H](C(=O)NC(C)C)CC1` , thanks.
Outgoing: < 50 nM

Incoming: IC50 lookup needed for `C=CCNS(=O)(=O)c1cccc(C(=O)/N=c2\[nH]c3ccc(CN4CCC(C(C)(C)O)CC4)cc3n2[C@H]2CC[C@H](C(N)=O)CC2)c1` , thanks.
Outgoing: < 50 nM

Incoming: IC50 lookup needed for `CC(C)(O)C1CCN(Cc2ccc3[nH]/c(=N\C(=O)c4ccc(F)cc4)n([C@H]4CC[C@@H](C(N)=O)CC4)c3c2)CC1` , thanks.
Outgoing: < 50 nM

The record that follows has no IC50 shown yet.
Incoming: IC50 lookup needed for `C=CCNS(=O)(=O)c1cccc(C(=O)/N=c2\[nH]c3cnc(OCCN4CCCCC4)cc3n2[C@H]2CC[C@H](C(=O)NC(C)C)CC2)c1` , thanks.
Outgoing: 100 to 1000 nM
